Biological target: T1, human CD2 (human, UniProt P06729)
T1 chain: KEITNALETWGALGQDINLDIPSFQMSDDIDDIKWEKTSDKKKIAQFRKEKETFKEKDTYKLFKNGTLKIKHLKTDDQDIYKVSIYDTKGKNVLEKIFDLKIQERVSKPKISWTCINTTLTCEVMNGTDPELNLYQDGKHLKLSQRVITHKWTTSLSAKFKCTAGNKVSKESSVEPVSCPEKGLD
Test: SPR
quantity_name: Kd (nM)

Take a look at these entries with their results.
binder	quantity_name	recorded_measurement
DARPin #15 (designed binder) DLGDKLLEAAQYGQDDEVRILLAAGADVNAKDNSGSTPLHLAAQHGHLEIVEVLLKAGADVNAKDWWGWTPLHEAATTGHLEIVEVLLKAGADVNAQDKSGKTPADLAAHAGHEDIAEVLQKAA	Kd	15.9
DARPin #2 (designed binder) DLGKKLLQAARAGQLDEVRELLKAGADVNAKDQHGFTPLHVAAKEGHLEIVEVLLKAGADVNAKDSFGETPLHLAAEHGHLEIVEVLLKAGADVNAKDQSGWTPLHLAAWAGHLEIVEVLLKAGADVNAQDKSGKTPADLAARAGHQDIAEVLQKAA	Kd	382

1 = DARPin #3 (designed binder) DLGKKLLQAARAGQLDEVRELLKAGADVNAKDQQGVTPLHIAAYGHLEIVEVLLKAGADVNAKDLQGETPLHVAAWAGHLEIVEVLLKAGADVNAKDKHGITPLHLAAKKGHLEIVEVLLKAGAEVNAQDKSGKTPADLAARAGHQDIAEVLQKAA
2 = DARPin #1 (designed binder) DLGVKLLHAAQTGQDDEVRILLAAGADVNAKDWLGVTPLHYAAWIGHLEIVEVLLKAGADVNAKDWQGQTPLHLAAQWGHLEIVEVLLKAGADVNAQDNHGNTPADLAAEVGHEDIAEVLQKAA
Q: # min-compare on Kd between 1 and 2 State your choice using its label.
A: 2
(2: 3.28 nM, 1: 48 nM)

These measurements were taken from patent US20260374869.
